Source listed as ChEMBL document CHEMBL1629474.

target: Triosephosphate isomerase, glycosomal (Trypanosoma cruzi) (UniProt P52270); experiment: Inhibition of Trypanosoma cruzi triosephosphate isomerase at 400 uM after 2 hrs
Sequence (P52270 whole entry): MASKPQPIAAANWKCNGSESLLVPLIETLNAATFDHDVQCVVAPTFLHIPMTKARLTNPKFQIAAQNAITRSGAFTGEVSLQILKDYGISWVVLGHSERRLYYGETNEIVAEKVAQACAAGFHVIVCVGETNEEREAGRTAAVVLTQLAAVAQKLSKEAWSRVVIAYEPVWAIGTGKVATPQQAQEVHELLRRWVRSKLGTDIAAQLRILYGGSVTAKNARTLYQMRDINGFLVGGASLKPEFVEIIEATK
The following molecules are listed with their measured inhibition values.

{"smiles.text": "O=[N+]([O-])c1ccc(C=Cc2ccc3no[n+]([O-])c3c2)s1", "inhibition (%)": 71}
{"smiles.text": "O=C(/C=C/c1ccc([N+](=O)[O-])o1)NC12CC3CC(CC(C3)C1)C2", "inhibition (%)": 16}
{"smiles.text": "c1ccc(-c2nsc(-c3ccccc3)n2)cc1", "inhibition (%)": 74}
{"smiles.text": "[O-][n+]1onc2ccc(CN3CCN(C/C=C/c4ccccc4)CC3)cc21", "inhibition (%)": 0}
{"smiles.text": "CCCCCCNS(=O)(=O)NCCCCCC", "inhibition (%)": 0}
{"smiles.text": "NS(=O)(=O)NCc1ccccc1", "inhibition (%)": 0}
{"smiles.text": "O=S(=O)(NCCc1ccccc1)NCCc1ccccc1", "inhibition (%)": 0}
{"smiles.text": "CCCCCCNC(=O)N/N=C/c1ccc2no[n+]([O-])c2c1", "inhibition (%)": 43}
{"smiles.text": "CCOC(=O)c1c(-c2ccccc2)[n+]([O-])c2ccc(CN3CCN(C/C=C/c4ccccc4)CC3)cc2[n+]1[O-]", "inhibition (%)": 12}
{"smiles.text": "N#Cc1c2ccccc2[n+]([O-])n1-c1ccc([N+](=O)[O-])cc1", "inhibition (%)": 29}
{"smiles.text": "Cc1c(/C=N/NC(N)=S)no[n+]1[O-]", "inhibition (%)": 87}
{"smiles.text": "Cc1ccc2c(c1)[n+]([O-])c(C)n2O", "inhibition (%)": 6}
{"smiles.text": "COC(=O)/C=C/c1ccc2no[n+]([O-])c2c1", "inhibition (%)": 8}
{"smiles.text": "[O-][n+]1onc2ccc(/C=C/c3cccs3)cc21", "inhibition (%)": 73}
{"smiles.text": "[O-][n+]1onc(-c2ccccc2)c1CN1CCN(c2ccccc2)CC1", "inhibition (%)": 27}
